system: model of bronchial asthma in guinea pigs; experiment: Content of cell elements in BAL in the model of bronchial asthma in guinea pigs; assay type: in vivo, guinea pig; conditions: Table 4; 14 mg/kg, 10 times of administration; n = 9
Marks after values point to notes of the source that are not given here.
Property: Neutrophils in BAL

Worked examples, 5 compounds total:
O=C1CCCC(=O)N1CCc1cnc[nH]1 [Compound 1] = 0.36 ± 0.09 10^9/L
O=C1CCCC(=O)N1CCc1ncc[nH]1 [Compound 2] = 1.05 ± 0.16*& 10^9/L
O=C1CCCC(=O)N1CCc1nccs1 [Compound 6] = 0.97 ± 0.28* 10^9/L
O=C1CCCC(=O)N1CCc1nc2ccccc2s1 [Compound 4] = 0.43 ± 0.12 10^9/L
Cn1cnc(CCN2C(=O)CCCC2=O)c1 [Compound 5] = 1.05 ± 0.33 10^9/L

// lookup Neutrophils in BAL for CC1(C)CC(=O)N(CCc2cnc[nH]2)C(=O)C1 [Compound 3]
0.36 ± 0.08 10^9/L

----------
tested on: model of bronchial asthma in guinea pigs; assay: Content of cell elements in BAL in the model of bronchial asthma in guinea pigs; type: in vivo, guinea pig; conditions: Table 4; 14 mg/kg, 10 times of administration; n = 9
Marks after values point to notes of the source that are not given here.
Property: Monocytes in BAL

Worked examples, 5 compounds total:
Cn1cnc(CCN2C(=O)CCCC2=O)c1 = 0.84 ± 0.23* 10^9/L
O=C1CCCC(=O)N1CCc1cnc[nH]1 = 0.35 ± 0.09* 10^9/L
O=C1CCCC(=O)N1CCc1ncc[nH]1 = 0.60 ± 0.14* 10^9/L
CC1(C)CC(=O)N(CCc2cnc[nH]2)C(=O)C1 = 0.71 ± 0.18& 10^9/L
O=C1CCCC(=O)N1CCc1nccs1 = 0.83 ± 0.18* 10^9/L

Here is the next item to consider.
Lookup: Monocytes in BAL / model of bronchial asthma in guinea pigs / "O=C1CCCC(=O)N1CCc1nc2ccccc2s1"
0.85 ± 0.19& 10^9/L

----------
system: model of bronchial asthma in guinea pigs; experiment: Content of cell elements in BAL in the model of bronchial asthma in guinea pigs; type: in vivo, guinea pig; conditions: Table 4; 14 mg/kg, 10 times of administration; n = 9
Property: Eosinophils in BAL

Worked examples, 5 molecules total:
Cn1cnc(CCN2C(=O)CCCC2=O)c1 = 1.61 ± 0.86*& 10^9/L
CC1(C)CC(=O)N(CCc2cnc[nH]2)C(=O)C1 = 0.93 ± 0.31*& 10^9/L
O=C1CCCC(=O)N1CCc1nccs1 = 0.60 ± 0.21*& 10^9/L
O=C1CCCC(=O)N1CCc1ncc[nH]1 = 1.30 ± 0.29*& 10^9/L
O=C1CCCC(=O)N1CCc1nc2ccccc2s1 = 1.25 ± 0.34*& 10^9/L

Here is the next item to consider.
// lookup Eosinophils in BAL for "O=C1CCCC(=O)N1CCc1cnc[nH]1"
0.89 ± 0.23*& 10^9/L
